Assign growth to each entry below.
tested on: OVCAR-8 ovarian; assay: NCI-60 one-dose screen, 48 h (100 = growth as untreated, 0 = no growth, -100 = all killed); conditions: 10 µM unless noted
Compounds without any hit were thinned out: in the full panel of roughly 83,000, 20% have a hit.
# number only, unit % dropped from output

Kindly note the recorded growth for Cc1csc(/N=C(N)/N=C(\N)c2cccc(Br)c2)n1 , which is 96.5

Note to self: growth recorded for CCS(=O)(=O)Nc1ccc(C(=O)CC2(O)C(=O)Nc3ccccc32)cc1 (stereo not given) was 101

C#CCOc1ccc(-c2csc(NC(=O)C=C)n2)cc1NS(=O)(=O)c1cccc2c(N(C)C)cccc12 yielded growth of 23.2

// growth lookup, compound = COC(=O)c1cccc(NC2=CC(=O)C(C)=C(C)C2=O)c1 , result: 87.9

What the record says about CN1CCN(Cc2ccc(NC(=O)c3cncc(C#Cc4cnc5ccc(NCCO)nn45)c3)cc2C(F)(F)F)CC1 : growth is 1.73

###

system: NCI-H460 lung; test: NCI-60 one-dose screen, 48 h; conditions: 10 µM unless noted
The panel holds about 83,000 compounds, 20% with a hit somewhere; the sample as a whole holds those more often. Active and inactive are the calls of the source. How the source made its calls: active means growth percent below 10; inactive means the rest.
I would appreciate it if you answered using one of these outcomes: active, inactive

input: Could you please tell me the result logged for CC(=O)N(O)CCCCCNC(=O)CCC(=O)N(O)CCCCCNC(=O)CCC(=O)N(O)CCCCCN(CCCCCCCCCC[P+](c1ccccc1)(c1ccccc1)c1ccccc1)CCCCCCCCCC[P+](c1ccccc1)(c1ccccc1)c1ccccc1 in this assay?
output: active

input: Write down the call the test reported for this compound. Item: O=C(CSc1nc2ccccc2c(=O)n1-c1ccc(Cl)cc1)N/N=C/c1ccc(Oc2ccc(Cl)cc2)cc1
output: active

input: Returns: the outcome recorded for CCOC(=O)c1ccc(NC2=C(Cl)C(=O)c3nc(C)ccc3C2=O)cc1 in this assay.
output: inactive

input: Returns: the outcome recorded for Fc1cc(F)cc(NNC(=S)c2ccccc2)c1 in this assay.
output: inactive

input: Would you mind telling me which call this test gave C=C(C)[C@@H]1CC[C@]2(C(=O)N3CCN(C)CC3)CC[C@]3(C)[C@H](CC[C@@H]4[C@@]5(C)CC[C@H](OP(=O)(OCC)OCC)C(C)(C)[C@@H]5CC[C@]43C)[C@@H]12 ?
output: inactive

input: Kindly provide the recorded test outcome for the following compound: Cn1cc(-c2nc(N)nnc2-c2c[nH]c3ccc(Br)cc23)c2cc(F)ccc21
output: inactive

input: Entry O=C(/C=C/c1ccc(Cl)c(Cl)c1)Nc1ncc(Cc2ccc(Cl)c(Cl)c2)s1 : call = ?
output: inactive

input: Answer briefly: the call reported for CN1CCN(c2ccc(Nc3nc(NCCCNS(=O)(=O)c4ccc(F)cc4)c4sccc4n3)cc2)CC1 in this assay.
output: inactive

input: Check the results log: what was the call for CCN(CC)CCOc1ccc(C(=C(c2ccccc2)C2CCCC2)c2ccc(OCCN(CC)CC)cc2)cc1 ?
output: inactive

input: Can you look up the reported call for COC(=O)CCCNCCCn1ccc2cc(NCc3cccc(-c4ccccc4)c3C)ccc21 for me?
output: inactive

input: Answer briefly: the call reported for O=C1c2ccccc2C23C(=C(c4cncnc4)c4ccccc42)CCCN13 (stereo not drawn) in this assay.
output: inactive

input: Assay result, entry CC(C)Sc1nc(-c2ccccc2)c(C#N)c(N2CCOCC2)n1 — outcome?
output: inactive

input: // return assay outcome for O=C(N/N=C\c1ccc(F)cc1)c1ccc2nc(-c3ccc(Br)cc3)[nH]c2c1
output: active

input: Per the assay record, what outcome was assigned to Cc1ccc(/C(N)=N/C(N)=N/c2nc3ccccc3s2)cc1 ?
output: inactive

input: For this compound, state the assay outcome: COc1ccc([C@@H]2C(=O)N(c3cc(OC)c(OC)c(OC)c3)[C@H]2c2ccc(OC)c(O)c2)cc1
output: active

input: Please share the test call associated with O=C1Nc2cc(Cl)ccc2/C1=C\c1ccc(OCc2ccccc2)cc1 .
output: inactive

input: In this assay, the call recorded for CC(C)C(/C=C/c1[nH]ncc1-c1cc(Cl)ccc1O)N1CCOCC1 (stereo not drawn) was what?
output: inactive

input: Status in this test for Brc1ccc2[nH]cc(-c3nn4cc(-c5nccs5)nc4s3)c2c1 ?
output: active

###

test system: RXF 393 renal; assay: NCI-60 one-dose screen, 48 h; settings: 10 µM unless noted
The panel holds about 83,000 compounds, 20% with a hit somewhere; the sample as a whole holds those more often. Activity calls are given as the source filed them. How the source made its calls: active means growth percent below 10; inactive means the rest.
Thanks in advance; please answer with one of these: active, inactive

input: Look up the recorded call for Cc1ccc2c(n1)C(=O)C(Cl)=C(Nc1ccc(C(F)(F)F)cc1)C2=O in this test.
output: active

input: Kindly provide the recorded test outcome for the following molecule: O=[N+]([O-])c1ccc(NC(=S)NNC(=S)Nc2ccc(Br)cc2)cc1
output: inactive

input: Called result for O=C1Nc2ccc(F)cc2/C1=C\C(=O)c1ccc(NS(=O)(=O)c2ccccc2)cc1
output: inactive

input: How was C#Cc1nc(C(=O)NCCCCCCC(=O)NO)cs1 classified in this test?
output: active

input: For Oc1[nH]c2ccc(Cl)cc2c1N=Nc1nc(N=Nc2c(O)[nH]c3ccc(Cl)cc23)nc(N2CCCCC2)n1 , which call appears in the assay record?
output: inactive

###

Consider the following compounds; for each one, report its growth.
system: SR leukemia; test: NCI-60 one-dose screen, 48 h (100 = growth as untreated, 0 = no growth, -100 = all killed); details: 10 µM unless noted
This is part of a sample that, as a whole, favours compounds with a hit. Of some 83,000 tested, about 20% had one in any assay.
Return type: number; implicit unit %.

The measured growth associated with COc1ccccc1/C=C1\Oc2ccc(O)c(O)c2C1=O reads 99.6

Sample Cn1cc(-c2cc3ncnc(Nc4ccc(NC(=O)Nc5cc(C(C)(C)C)on5)cc4)c3s2)cn1 ; growth observed: 22.3

Just so you know, measured growth for CCc1cc(OC(=O)N2CCN(CCC(C)(COC(C)(C)C)COC(C)(C)C)CC2)ccc1Nc1cc(-c2ccc(-n3cccn3)cc2)[nH]n1 came out at 37.9

// growth value for C#Cc1nc(/C=C/CCCCCCC(=O)NO)cs1 : -39.9

response.value for Cn1c(SCC(=O)c2ccco2)nc2ccccc2c1=O (field: growth) = 91.5

###

test system: RXF 393 renal; assay: NCI-60 one-dose screen, 48 h (100 = growth as untreated, 0 = no growth, -100 = all killed); conditions: 10 µM unless noted
The panel holds about 83,000 compounds, 20% with a hit somewhere; the sample as a whole holds those more often.
# binarize growth: threshold 70% inclusive, high side met, low side not met

input: Hello, I need to know if Cc1ccc2c(n1)C(=O)C(Cl)=C(Nc1ccccc1C(=O)OC(C)(C)C)C2=O has measured growth not below 70%. Thanks!
output: not met

input: Record C#C[C@]1(O)CC[C@H]2[C@@H]3CC=C4c5sc(Nc6cccc(F)c6)nc5CC[C@]4(C)[C@H]3CC[C@@]21C ; criterion: growth no lower than 70%. Met?
output: not met

input: Dear colleague, could you confirm whether CC(=C(c1ccc(OCCCN(C)C)cc1)c1ccc(OCCCN(C)C)cc1)c1ccc(Cl)cc1 has growth at or above 70%?
output: met

input: Say whether COc1ccc(Cn2cc(C#N)c(N)c2C(C)=O)cc1 shows growth of 70% or more.
output: met

input: Decide: growth of O=C(COc1ccc(/C=C2\C(=O)Nc3ccc(Cl)cc32)cc1)Nc1ccc(Cl)cc1 >= 70%?
output: met

input: Determine whether measured growth meets or exceeds 70% for N#Cc1c(-c2ccc(F)cc2)cc(-c2c[nH]c3ccccc23)nc1-c1c[nH]c2ccccc12
output: met

input: For this compound, is measured growth 70% or higher? C=C1CCc2nc(SCC(=O)O)ccc2N1
output: met

input: Kindly determine if growth recorded for CN1CCN(Cc2ccc(NC(=O)c3cncc(C#Cc4cnc5ccc(NCCO)nn45)c3)cc2C(F)(F)F)CC1 is above or exactly 70%.
output: not met

###

Tested on: OVCAR-5 ovarian
Assay: NCI-60 one-dose screen, 48 h (100 = growth as untreated, 0 = no growth, -100 = all killed)
Details: 10 µM unless noted
Method: Growth inhibition of the OVCAR-5 human tumor cell line is measured as a screen for anti-cancer activity. Cells are grown in 96 well plates and exposed to the test compound for 48 hours. Compounds are tested at a single concentration, which is 10^-5 M for most compounds. The reported endpoint is percent growth (GI% or GIPRCNT), where numbers from 0 - 100% represent growth inhibition, and numbers from -100% - 0 represent cell death. For example, a value of 40 represents 60% growth inhibition. […]
The panel holds about 83,000 compounds, 20% with a hit somewhere; the sample as a whole holds those more often.
Param label: returns Yes when growth < 90%, returns No otherwise, including exact equality.

input: Hello, I'm reviewing records and need to know if growth of COC(=O)[C@@H](Cc1c[nH]c2ccccc12)NC(=O)CCCCOc1cc(O)c2c(=O)cc(-c3ccccc3)oc2c1 is below 90%. Could you check?
output: No

input: Given the entry CN1CCC[C@]2(C)[C@H]3CC[C@@H]4[C@@H]5[C@H]6OC[C@@]5(CCC6(C)C)CC[C@@]4(C)[C@]3(C)CC[C@H]2C1(C)C , would its reported growth be below 90%?
output: No

input: Identify whether the molecule O=C(/C=C/c1cccc(C(F)(F)F)c1)Nc1cccc(C(F)(F)F)c1 records growth below 90%.
output: No

input: Decide: growth of N/C(=N\C(N)=N\c1nc2ccccc2s1)c1ccc(Cl)cc1 strictly below 90%?
output: No

input: Given the entry COc1ccc(C2C(C#N)=C(/N=C/c3ccc(Cl)cc3)Oc3c2sc2c(C)cccc32)cc1 (stereo not given) , would its reported growth be below 90%?
output: Yes
